# Tested on: PC26
# Assay comment: qHTS profiling for inhibitors of Plasmodium falciparum proliferation (AID 504749); note: nearly all actives have a fitted effect of over 60% in size; note: potency is the fitted concentration of half-maximal effect
# Experimental setup: P. falciparum in erythrocytes, SYBR Green DNA, 72 h; series mostly up to 28.7 µM
Results filed as inconclusive are left out. Activity calls are given as the source filed them. Calls come from the whole dose curve; as a rule, active = well fitted inhibition curve with a large enough effect; inconclusive = small, poorly fitted or top-dose-only effect; inactive = flat fitted curve, though single readings scatter.
Endpoint: Potency

Sample answers from the record:
[[record]]
compound = "CN1C(CCl)Nc2cc(Cl)c(S(N)(=O)=O)cc2S1(=O)=O (stereo not drawn)"
reported_value = "inactive"

[[record]]
compound = "C[C@H]1C[C@H]2[C@@H]3CCC4=CC(=O)C=C[C@]4(C)[C@@]3(Cl)[C@@H](O)C[C@]2(C)[C@@]1(O)C(=O)CO"
reported_value = "inactive"

[[record]]
compound = "N[C@@H](Cc1cnc[nH]1)C(=O)O"
reported_value = "inactive"

[[record]]
compound = "NCCc1ccn[nH]1"
reported_value = "inactive"

[[record]]
compound = "CC(=O)OCC(=O)NCCCOc1cccc(CN2CCCCC2)c1"
reported_value = "inactive"

[[record]]
compound = "CC(C)N=C(N)/N=C(\\N)Nc1ccc(Cl)cc1"
reported_value = "1.61 µM (active)"

[[record]]
compound = "Cc1cccn2c(=O)c(-c3nnn[nH]3)cnc12"
reported_value = "inactive"

[[record]]
compound = "CC(C)COC(=O)c1ccc(N)cc1"
reported_value = "inactive"


(Q) Item under review: `COc1cc(OC)cc(OC)c1` . Reported Potency?
(A) inactive

(Q) Then what about the compound `O=C(COc1ccc(Cl)cc1)N1CCN(Cc2ccc3c(c2)OCO3)CC1` ?
(A) inactive

(Q) Same thing, different compound: c1ccc(-c2ccc(C(c3ccccc3)n3ccnc3)cc2)cc1 (stereo not drawn)
(A) 12 µM (active)

(Q) Same lookup for `COC1=CC(=O)C[C@@H](C)[C@]12Oc1c(Cl)c(OC)cc(OC)c1C2=O` , please.
(A) inactive

(Q) What do we get for `CC(C)(CO)[C@@H](O)C(=O)NCCCO` ?
(A) inactive
